Data origin: ChEMBL document CHEMBL3044734

Entries and their Activity values follow.
Tested on: Gaeumannomyces tritici
Test: Antimicrobial activity against Gaeumannomyces graminis var. tritici assessed as colony diameter at 100 ug/plug after 3 days ( Rvb = 1.40+/- 0.8 cm)
Assay type: functional
Please state the figure in cm; there is no need to write the unit.

// solved cases for Activity follow
# compound, quantity.unit, measured.value
rows = [
    ("C/C=C/CC(C)C(=O)c1c(O)c(OC)c(OC)[nH]c1=O (centres undefined)", "cm", 0),
    ("C/C=C/C=C/CC1=C(CC(C)O)C(=O)OC1 (centres undefined) [HARZIANOLIDE]", "cm", 1.25),
    ("C/C=C/C=C/C1=CC2=CC(=O)[C@](C)(OC(=O)[C@H](C)O)C(=O)C2=CO1", "cm", 0),
]

Let's switch to this compound now.
Input line: Could you tell me which Activity is on file for C/C=C/C=C/CC1=C(CC(C)=O)C(=O)OC1 [T39BUTENOLIDE] ?
Output line: 0
